# test-name: Cytotoxicity against HEL cells assessed as concentration required to cause alteration in cell alteration by microscopically
# Type: cell-based
# condition: human
observable: MCC

Q) Entry under review: CC(C)(NP(=O)(OCCOCn1cnc2c(=O)[nH]c(N)nc21)Oc1ccccc1)C(=O)OCc1ccccc1 (stereo not drawn) . Reported MCC?
A) > 100 µM

Q) Entry under review: CCCOC(=O)[C@H](C)NP(=O)(OCCOCn1cnc2c(=O)[nH]c(N)nc21)Oc1cccc2ccccc12 (stereo partly drawn) . Reported MCC?
A) ≥ 50 µM

Q) Entry under review: CC(C)(NP(=O)(OCCOCn1cnc2c(=O)[nH]c(N)nc21)Oc1cccc2ccccc12)C(=O)OCc1ccccc1 (stereo not drawn) . Reported MCC?
A) > 50 µM

Q) Entry under review: Nc1nc2c(ncn2COCCOP(=O)(Oc2ccccc2)N2CCC[C@H]2C(=O)OCc2ccccc2)c(=O)[nH]1 (stereo partly drawn) . Reported MCC?
A) > 100 µM

Q) Entry under review: C[C@H](NP(=O)(OCCOCn1cnc2c(=O)[nH]c(N)nc21)Oc1ccc(F)cc1)C(=O)OCc1ccccc1 (stereo partly drawn) . Reported MCC?
A) > 100 µM

Q) Entry under review: CCOC(=O)[C@H](C)NP(=O)(OCCOCn1cnc2c(=O)[nH]c(N)nc21)Oc1cccc2ccccc12 (stereo partly drawn) . Reported MCC?
A) > 150 µM

Q) Entry under review: CC[C@H](C)[C@H](NP(=O)(OCCOCn1cnc2c(=O)[nH]c(N)nc21)Oc1ccccc1)C(=O)OCc1ccccc1 (stereo partly drawn) . Reported MCC?
A) > 100 µM

Q) Entry under review: COC(=O)[C@H](C)NP(=O)(OCCOCn1cnc2c(=O)[nH]c(N)nc21)Oc1ccccc1 (stereo partly drawn) . Reported MCC?
A) > 100 µM

====

# test-name: Cytotoxicity against HEL cells assessed as concentration required to cause alteration in cell alteration by microscopically
# Type: cell-based
# condition: human
observable: MCC

Q) Entry under review: COC(=O)[C@H](C)NP(=O)(OCCOCn1cnc2c(=O)[nH]c(N)nc21)Oc1cccc2ccccc12 (stereo not given in full) . Reported MCC?
A) > 50 µM

Q) Entry under review: C[C@H](NP(=O)(OCCOCn1cnc2c(=O)[nH]c(N)nc21)Oc1cccc2ccccc12)C(=O)OCc1ccccc1 (stereo not given in full) . Reported MCC?
A) ≥ 20 µM

Q) Entry under review: CC(C)C[C@H](NP(=O)(OCCOCn1cnc2c(=O)[nH]c(N)nc21)Oc1ccccc1)C(=O)OCc1ccccc1 (stereo not given in full) . Reported MCC?
A) > 100 µM

Q) Entry under review: C[C@H](NP(=O)(OCCOCn1cnc2c(=O)[nH]c(N)nc21)Oc1ccccc1)C(=O)OCc1ccccc1 (stereo not given in full) . Reported MCC?
A) > 50 µM

Q) Entry under review: C[C@@H](NP(=O)(OCCOCn1cnc2c(=O)[nH]c(N)nc21)Oc1ccccc1)C(=O)OCc1ccccc1 (stereo not given in full) . Reported MCC?
A) > 100 µM

Q) Entry under review: CC(C)OC(=O)[C@H](C)NP(=O)(OCCOCn1cnc2c(=O)[nH]c(N)nc21)Oc1ccccc1 (stereo not given in full) . Reported MCC?
A) > 50 µM

Q) Entry under review: CCOC(=O)[C@@H](NP(=O)(OCCOCn1cnc2c(=O)[nH]c(N)nc21)Oc1cccc2ccccc12)C(C)C (stereo not given in full) . Reported MCC?
A) > 100 µM

Q) Entry under review: C[C@H](NP(=O)(OCCOCn1cnc2c(=O)[nH]c(N)nc21)Oc1cccc2ccccc12)C(=O)OC(C)(C)C (stereo not given in full) . Reported MCC?
A) > 50 µM

Q) Entry under review: COC(=O)[C@H](NP(=O)(OCCOCn1cnc2c(=O)[nH]c(N)nc21)Oc1cccc2ccccc12)C(C)C (stereo not given in full) . Reported MCC?
A) > 100 µM

Q) Entry under review: CC(C)[C@H](NP(=O)(OCCOCn1cnc2c(=O)[nH]c(N)nc21)Oc1ccccc1)C(=O)OCc1ccccc1 (stereo not given in full) . Reported MCC?
A) > 100 µM

Q) Entry under review: CC(C)OC(=O)[C@H](C)NP(=O)(OCCOCn1cnc2c(=O)[nH]c(N)nc21)Oc1cccc2ccccc12 (stereo not given in full) . Reported MCC?
A) > 50 µM

Q) Entry under review: Nc1nc2c(ncn2COCCOP(=O)(NCC(=O)OCc2ccccc2)Oc2ccccc2)c(=O)[nH]1 (stereo not given) . Reported MCC?
A) > 100 µM

Q) Entry under review: COC(=O)[C@@H](NP(=O)(OCCOCn1cnc2c(=O)[nH]c(N)nc21)Oc1cccc2ccccc12)C(C)C (stereo not given in full) . Reported MCC?
A) > 100 µM

Q) Entry under review: Nc1nc2c(ncn2COCCOP(=O)(NC(Cc2ccccc2)C(=O)OCc2ccccc2)Oc2ccccc2)c(=O)[nH]1 (stereo not given) . Reported MCC?
A) > 50 µM

Q) Entry under review: Nc1nc2c(ncn2COCCO)c(=O)[nH]1 [ACYCLOVIR] . Reported MCC?
A) > 100 µM

====

# System: MT4
# test-name: Cytotoxicity against human MT4 cells assessed as inhibition of cell proliferation
# Type: cell-based
Can you tell me CC50 for the items I'm about to list?

Q) Entry under review: CN(C)/C=N/c1nc2c(ncn2COCCOP(=O)(Oc2ccccc2)N2CCC[C@H]2C(=O)OCc2ccccc2)c(=O)[nH]1 (some centres undefined) . Reported CC50?
A) 90 µM

Q) Entry under review: C[C@H](NP(=O)(OCCOCn1cnc2c(=O)[nH]c(N)nc21)Oc1cccc2ccccc12)C(=O)OC(C)(C)C (some centres undefined) . Reported CC50?
A) > 150 µM

Q) Entry under review: CC(C)OC(=O)[C@H](C)NP(=O)(OCCOCn1cnc2c(=O)[nH]c(N)nc21)Oc1cccc2ccccc12 (some centres undefined) . Reported CC50?
A) > 150 µM

Q) Entry under review: CN(C)/C=N/c1nc2c(ncn2COCCOP(=O)(NC(C)(C)C(=O)OCc2ccccc2)Oc2ccccc2)c(=O)[nH]1 (centres undefined) . Reported CC50?
A) > 150 µM

Q) Entry under review: `Nc1nc2c(ncn2COCCO)c(=O)[nH]1` . Reported CC50?
A) > 250 µM

Q) Entry under review: C[C@H](NP(=O)(OCCOCn1cnc2c(=O)[nH]c(N)nc21)Oc1ccccc1)C(=O)OCc1ccccc1 (some centres undefined) . Reported CC50?
A) > 150 µM

Q) Entry under review: CC(C)(NP(=O)(OCCOCn1cnc2c(=O)[nH]c(N)nc21)Oc1ccccc1)C(=O)OCc1ccccc1 (centres undefined) . Reported CC50?
A) > 150 µM

Q) Entry under review: CN(C)/C=N/c1nc2c(ncn2COCCOP(=O)(NC(C)(C)C(=O)OCc2ccccc2)Oc2cccc3ccccc23)c(=O)[nH]1 (centres undefined) . Reported CC50?
A) 45 µM

Q) Entry under review: CC(C)OC(=O)[C@H](C)NP(=O)(OCCOCn1cnc2c(=O)[nH]c(N)nc21)Oc1ccccc1 (some centres undefined) . Reported CC50?
A) > 150 µM
